test: Selectivity index, ratio of cytotoxic CC50 for HEK293 cells to cytotoxic CC50 for human MCF7 cells; format: toxicity; details: HEK293 cells versus MCF7 cells, read-out: Selectivity Index
assay endpoint: selectivity ratio

CC(=O)O[C@@]12CO[C@@H]1C[C@H](O)[C@@]1(C)C(=O)[C@H](O)C3=C(C)[C@@H](OC(=O)[C@H](O)[C@@H](NC(=O)OC(C)(C)C)c4ccccc4)C[C@@](O)([C@@H](OC(=O)c4ccccc4)[C@H]21)C3(C)C [DOCETAXEL ANHYDROUS] :: 160

Consider now this further compound.
-- ask Data request, read-out selectivity ratio, for C=C(C)[C@@H]1CC[C@]2(C(=O)O)CC[C@]3(C)[C@H](CC[C@@H]4[C@@]5(C)CC[C@H](O)C(C)(C)[C@@H]5CC[C@]43C)[C@@H]12
-- reply 1.6

* * *

Recorded selectivity ratio values for a group of molecules are listed next.
test: Selectivity index, ratio of cytotoxic CC50 for African green monkey Vero cells to cytotoxic CC50 for human Hep2 cells; assay type: toxicity; conditions: Vero cells versus Hep2 cells, read-out: Selectivity Index
Would you mind answering with just the numeric figure?

Recorded results for 2 molecules are shown here.
C=C(C)[C@@H]1CC[C@]2(C(=O)O)CC[C@]3(C)[C@H](CC[C@@H]4[C@@]5(C)CC[C@H]6OC(C)(C)OC[C@]6(C)[C@@H]5CC[C@]43C)[C@@H]12 :: 13
C=C(C)[C@@H]1CC[C@]2(C(=O)O)CC[C@]3(C)[C@H](CC[C@@H]4[C@@]5(C)CC[C@H](O)C(C)(C)[C@@H]5CC[C@]43C)[C@@H]12 :: 1.3

-- ask Data request, read-out selectivity ratio, for CC(=O)O[C@@]12CO[C@@H]1C[C@H](O)[C@@]1(C)C(=O)[C@H](O)C3=C(C)[C@@H](OC(=O)[C@H](O)[C@@H](NC(=O)OC(C)(C)C)c4ccccc4)C[C@@](O)([C@@H](OC(=O)c4ccccc4)[C@H]21)C3(C)C [DOCETAXEL ANHYDROUS]
-- reply 21.6

* * *

Recorded CC50 values for a group of compounds are listed next.
test system: DU-145; experiment: Cytotoxic activity in human DU145 cells by sulforhodamine B assay; assay type: functional

C=C(C)[C@@H]1CC[C@]2(C(=O)O)CC[C@]3(C)[C@H](CC[C@@H]4[C@@]5(C)CC[C@@H](O)C(C)(C)[C@@H]5CC[C@]43C)[C@@H]12 [EPIBETULINIC ACID] :: > 500 µM
C=C(C)[C@@H]1CC[C@]2(C(=O)O)CC[C@]3(C)[C@H](CC[C@@H]4[C@@]5(C)CC[C@H]6OC(C)(C)OC[C@]6(C)[C@@H]5CC[C@]43C)[C@@H]12 :: > 500 µM

Consider now this further compound.
-- ask // map C=C(C)[C@@H]1CC[C@]2(C)CC[C@]3(C)[C@H](CC[C@@H]4[C@@]5(C)CCC(=O)C(C)(C)[C@@H]5CC[C@]43C)[C@@H]12 [LUPENONE] to recorded CC50 (system: DU-145)
-- reply > 500 µM

Hey, just so you know, these numbers are from ChEMBL document CHEMBL4130545.
